Reported XC50 is given for each of the following compounds.
- Tested on: Plasmodium falciparum
- ASSAY: GSK_TCMDC: Inhibition of Plasmodium falciparum 3D7 in whole erythrocytes, using parasite LDH activity as an index of growth.
- Assay type: functional, organism-based
- CONDITION_INFO: Plasmodium falciparum, 3D7
VALUE_KIND: XC50 (nM)

{"COMPOUND": "CS(=O)(=O)c1ccc(CCNCc2ccc(-c3ccc(CN(C(=O)c4cccc(C#N)c4)C4CCN(Cc5ccccc5)CC4)cc3)nc2)cc1", "VALUE_KIND": "XC50", "UNIT_TEXT": "nM", "MEASURED_VALUE": 977}
{"COMPOUND": "CCN1CCC(N(Cc2ccc(-c3ccc(C(F)(F)F)cc3)cc2)C(=O)Cn2c(CCc3cccc(F)c3F)cc(=O)c3c2CCCC3)CC1", "VALUE_KIND": "XC50", "UNIT_TEXT": "nM", "MEASURED_VALUE": 755}
{"COMPOUND": "CCOC(=O)c1ccc(NC(=O)N(Cc2ccc(-c3ccc(CN4CCNCC4)cc3)cc2)Cc2cccnc2)cc1", "VALUE_KIND": "XC50", "UNIT_TEXT": "nM", "MEASURED_VALUE": 926}
{"COMPOUND": "CC(Cc1ccc(NC(=O)CCCc2ccccc2)cc1)NCCc1cccc(Cl)c1 (centres undefined)", "VALUE_KIND": "XC50", "UNIT_TEXT": "nM", "MEASURED_VALUE": 945}
{"COMPOUND": "Cc1cc(Nc2ncc3c(n2)N(C2CCC2)CC3)ccc1N1CCN(C)CC1", "VALUE_KIND": "XC50", "UNIT_TEXT": "nM", "MEASURED_VALUE": 1190}
{"COMPOUND": "CC(C)N1CCC(N(Cc2ccc(-c3ccc(C(F)(F)F)cc3)cc2)C(=O)Cn2c(CCc3cccc(F)c3F)cc(=O)c3ccccc32)CC1", "VALUE_KIND": "XC50", "UNIT_TEXT": "nM", "MEASURED_VALUE": 850}
{"COMPOUND": "Cc1cc(NC(=O)Nc2ccc(C(C)C)cc2)c2ccccc2n1", "VALUE_KIND": "XC50", "UNIT_TEXT": "nM", "MEASURED_VALUE": 662}
{"COMPOUND": "O=C(Nc1ccc2nc3n(c(=O)c2c1)CCCCC3)C(=O)N1CCN(c2ccc(F)cc2)CC1", "VALUE_KIND": "XC50", "UNIT_TEXT": "nM", "MEASURED_VALUE": 636}
{"COMPOUND": "N#Cc1ccc(N(CCOC(=O)c2ccccc2)Cc2ccccc2C(F)(F)F)cc1C(F)(F)F", "VALUE_KIND": "XC50", "UNIT_TEXT": "nM", "MEASURED_VALUE": 921}

====

- Test system: Plasmodium falciparum
- ASSAY: GSK_TCMDC: Inhibition of Plasmodium falciparum 3D7 in whole erythrocytes, using parasite LDH activity as an index of growth.
- Type: functional, organism-based
- CONDITION_INFO: Plasmodium falciparum, 3D7
Reported log10 of XC50 is given for each of the following molecules.
VALUE_KIND: log10 of XC50 (log10 of the value in nM)

{"MOLECULE": "COc1cccc(-c2ccc3c(-c4ccc(F)cc4)cnc(N)c3c2)c1", "MEASURED_TARGET": "Plasmodium falciparum", "VALUE_KIND": "log10 of XC50", "MEASURED_VALUE": 2.91}
{"MOLECULE": "Cc1ccc(O)cc1Nc1ccnc2cc(-c3cccc(CNCCS(C)(=O)=O)c3)ccc12", "MEASURED_TARGET": "Plasmodium falciparum", "VALUE_KIND": "log10 of XC50", "MEASURED_VALUE": 2.92}
{"MOLECULE": "Cc1c(OC(C)C)nc2ccccc2c1C(=O)N[C@H](c1cccc(F)c1)C1CC1", "MEASURED_TARGET": "Plasmodium falciparum", "VALUE_KIND": "log10 of XC50", "MEASURED_VALUE": 3.04}
{"MOLECULE": "O=C(/C=C/c1ccc(Cl)c(Cl)c1)NCCCCCN1CCC(NC(=O)Nc2ccc([N+](=O)[O-])cc2)CC1", "MEASURED_TARGET": "Plasmodium falciparum", "VALUE_KIND": "log10 of XC50", "MEASURED_VALUE": 2.84}
{"MOLECULE": "C=CCOc1ccc2ccccc2c1CNCCCCCCNCc1c(OCC=C)ccc2ccccc12", "MEASURED_TARGET": "Plasmodium falciparum", "VALUE_KIND": "log10 of XC50", "MEASURED_VALUE": 2.93}
{"MOLECULE": "CSc1nc2cc3c(cc2n1C(=O)c1ccc(C)cc1)OCCO3", "MEASURED_TARGET": "Plasmodium falciparum", "VALUE_KIND": "log10 of XC50", "MEASURED_VALUE": 2.22}
{"MOLECULE": "c1ccc(-c2nc(NC3CCCCC3)cc(C3CC3)n2)nc1", "MEASURED_TARGET": "Plasmodium falciparum", "VALUE_KIND": "log10 of XC50", "MEASURED_VALUE": 2.86}
{"MOLECULE": "CC(C)CNCc1ccc(-c2cccc(CN(C(=O)CCC3CCCC3)C3CCN(Cc4ccccc4)CC3)c2)cc1", "MEASURED_TARGET": "Plasmodium falciparum", "VALUE_KIND": "log10 of XC50", "MEASURED_VALUE": 2.90}
{"MOLECULE": "Cc1[nH]c(C)c(-c2ccc(Nc3ccc(C(F)(F)F)cn3)cc2)c(=O)c1Br", "MEASURED_TARGET": "Plasmodium falciparum", "VALUE_KIND": "log10 of XC50", "MEASURED_VALUE": 1.41}
{"MOLECULE": "Cc1ccc(C)c(S(=O)(=O)NCC2CCN(Cc3ccc(O)cc3)CC2)c1", "MEASURED_TARGET": "Plasmodium falciparum", "VALUE_KIND": "log10 of XC50", "MEASURED_VALUE": 2.99}
{"MOLECULE": "CCn1ncc2c(NC3CCOCC3)c(CNC(=O)c3ccnn3C)c(C)nc21", "MEASURED_TARGET": "Plasmodium falciparum", "VALUE_KIND": "log10 of XC50", "MEASURED_VALUE": 2.73}
{"MOLECULE": "CC(=O)c1sc(Cc2nc3ccccc3s2)nc1C", "MEASURED_TARGET": "Plasmodium falciparum", "VALUE_KIND": "log10 of XC50", "MEASURED_VALUE": 3.03}
{"MOLECULE": "CN1CCCC(COc2cc3c(cc2Br)CCN3C(=O)Nc2ccc(-c3ccncc3)c(Cl)c2)C1 (centres undefined)", "MEASURED_TARGET": "Plasmodium falciparum", "VALUE_KIND": "log10 of XC50", "MEASURED_VALUE": 2.37}
{"MOLECULE": "CN1CCC(C(=O)N(Cc2ccc(-c3ccc(CNCCc4ccccc4)cn3)cc2)C2CCN(Cc3ccccc3)CC2)CC1", "MEASURED_TARGET": "Plasmodium falciparum", "VALUE_KIND": "log10 of XC50", "MEASURED_VALUE": 2.90}
{"MOLECULE": "COc1ccc2cc(-c3nc(-c4c(Cl)cccc4Cl)[nH]c3-c3ccnc(NCCCN4CCCCC4C)c3)ccc2c1 (centres undefined)", "MEASURED_TARGET": "Plasmodium falciparum", "VALUE_KIND": "log10 of XC50", "MEASURED_VALUE": 2.98}
{"MOLECULE": "FC(F)(F)c1cccnc1N1CCC(Nc2nc3cc(Cl)ccc3[nH]2)CC1", "MEASURED_TARGET": "Plasmodium falciparum", "VALUE_KIND": "log10 of XC50", "MEASURED_VALUE": 2.81}
{"MOLECULE": "Cc1sc(CNCCCNc2cc(=O)c3ccccc3[nH]2)c(C(F)(F)F)c1C", "MEASURED_TARGET": "Plasmodium falciparum", "VALUE_KIND": "log10 of XC50", "MEASURED_VALUE": 2.87}
{"MOLECULE": "CNCCNCc1ccc(-c2cccc(-c3nc4cc(C(F)(F)F)ccc4[nH]3)c2)cc1", "MEASURED_TARGET": "Plasmodium falciparum", "VALUE_KIND": "log10 of XC50", "MEASURED_VALUE": 2.80}
{"MOLECULE": "CN(C)CCOc1cc(NC(=O)Nc2cccc3c(-c4ccncc4)cccc23)ccc1I", "MEASURED_TARGET": "Plasmodium falciparum", "VALUE_KIND": "log10 of XC50", "MEASURED_VALUE": 2.87}
{"MOLECULE": "CC1(C)CCC(C)(C)c2c1ccc(C1CCN(CCCCNC(=O)c3ccc(-c4ccc(Cl)cc4)cc3)CC1)c2O", "MEASURED_TARGET": "Plasmodium falciparum", "VALUE_KIND": "log10 of XC50", "MEASURED_VALUE": 2.68}
{"MOLECULE": "O=C(Nc1ccc(Br)cc1)Nc1ccc(Cn2ncc(N3CCCNCC3)c(Cl)c2=O)cc1", "MEASURED_TARGET": "Plasmodium falciparum", "VALUE_KIND": "log10 of XC50", "MEASURED_VALUE": 3.06}
{"MOLECULE": "Cc1cc(NCC2CCN(CC3CCCCC3)C2)nc(Nc2ccc(Cl)cc2)n1 (centres undefined)", "MEASURED_TARGET": "Plasmodium falciparum", "VALUE_KIND": "log10 of XC50", "MEASURED_VALUE": 2.87}
{"MOLECULE": "COc1cc(Cc2cnc(N)nc2N)cc(OCCCCC#N)c1OC", "MEASURED_TARGET": "Plasmodium falciparum", "VALUE_KIND": "log10 of XC50", "MEASURED_VALUE": 3.02}
{"MOLECULE": "CCOc1ccccc1CNc1nccc(NCCc2cn(C)c3ccccc23)n1", "MEASURED_TARGET": "Plasmodium falciparum", "VALUE_KIND": "log10 of XC50", "MEASURED_VALUE": 3.10}
{"MOLECULE": "CN1CCN(c2ccc(Nc3ccnc4ccc(-c5ccccc5)cc34)cc2)CC1", "MEASURED_TARGET": "Plasmodium falciparum", "VALUE_KIND": "log10 of XC50", "MEASURED_VALUE": 1.97}
{"MOLECULE": "Cc1cccc(C)c1CNc1ccnc2ccccc12", "MEASURED_TARGET": "Plasmodium falciparum", "VALUE_KIND": "log10 of XC50", "MEASURED_VALUE": 3.08}
{"MOLECULE": "CCOc1cc(C)ccc1C1CCN(CCCCNC(=O)c2cnc(-c3ccc(C(F)(F)F)cc3)[nH]2)CC1", "MEASURED_TARGET": "Plasmodium falciparum", "VALUE_KIND": "log10 of XC50", "MEASURED_VALUE": 2.89}
{"MOLECULE": "CN1CCN(c2ccc(CNc3ccc4ncc(-c5cccc(OC(F)(F)F)c5)n4n3)cc2)CC1", "MEASURED_TARGET": "Plasmodium falciparum", "VALUE_KIND": "log10 of XC50", "MEASURED_VALUE": 2.94}
{"MOLECULE": "COc1ccccc1C(=O)Nc1cccc(N2CCC(NCc3ccc(-n4cccn4)cc3)CC2)c1", "MEASURED_TARGET": "Plasmodium falciparum", "VALUE_KIND": "log10 of XC50", "MEASURED_VALUE": 3.08}
{"MOLECULE": "Cc1cc(OCCCN2CCCCC2)ccc1NC(=O)COc1ccc(Cl)cc1C(=O)c1cc(Cl)cc(C#N)c1", "MEASURED_TARGET": "Plasmodium falciparum", "VALUE_KIND": "log10 of XC50", "MEASURED_VALUE": 2.95}
{"MOLECULE": "CN(C)c1ccc(CN2CCC(NC(=O)c3ccc(-c4ccccc4F)s3)CC2)cc1", "MEASURED_TARGET": "Plasmodium falciparum", "VALUE_KIND": "log10 of XC50", "MEASURED_VALUE": 3.05}
{"MOLECULE": "COc1cccc2cc(C(=O)N[C@@H](CC(C)C)C(=O)Nc3cc(F)ccc3Br)oc12", "MEASURED_TARGET": "Plasmodium falciparum", "VALUE_KIND": "log10 of XC50", "MEASURED_VALUE": 2.98}
{"MOLECULE": "CCC(C)CN1CCN(c2cc(NC(=O)c3cccs3)ccn2)C(C)C1 (centres undefined)", "MEASURED_TARGET": "Plasmodium falciparum", "VALUE_KIND": "log10 of XC50", "MEASURED_VALUE": 3.00}
{"MOLECULE": "CCc1nc2c(N)nc(N)nc2nc1-c1ccc(OC)cc1", "MEASURED_TARGET": "Plasmodium falciparum", "VALUE_KIND": "log10 of XC50", "MEASURED_VALUE": 3.08}
{"MOLECULE": "O=C(NC1CCC(N2CCC(O)(c3ccc(F)cc3)CC2)CC1)c1cc2ccccc2[nH]1 (centres undefined)", "MEASURED_TARGET": "Plasmodium falciparum", "VALUE_KIND": "log10 of XC50", "MEASURED_VALUE": 2.87}
{"MOLECULE": "COc1ccc2nccc([C@@H](O)CN3CCC(NCCOc4ccc(F)cc4[N+](=O)[O-])CC3)c2c1", "MEASURED_TARGET": "Plasmodium falciparum", "VALUE_KIND": "log10 of XC50", "MEASURED_VALUE": 2.06}
{"MOLECULE": "c1ccc2[nH]c(-c3ccc(-c4ccc(CNC5CC5)cc4)s3)nc2c1", "MEASURED_TARGET": "Plasmodium falciparum", "VALUE_KIND": "log10 of XC50", "MEASURED_VALUE": 3.02}
{"MOLECULE": "CCN(CC)c1nc(Nc2cc(C)ccc2C)nc(Nc2ccccc2O)n1", "MEASURED_TARGET": "Plasmodium falciparum", "VALUE_KIND": "log10 of XC50", "MEASURED_VALUE": 2.81}
{"MOLECULE": "CC(C)(CNC(=O)[C@@H]1CCCN(CCOc2ccc(F)c(F)c2)C1)c1nc(-c2ccc(Cl)c(O)c2)c(-c2ccncc2)[nH]1", "MEASURED_TARGET": "Plasmodium falciparum", "VALUE_KIND": "log10 of XC50", "MEASURED_VALUE": 2.86}
